Task for the reader: assign each of the following molecules its reported pKi.
Target: human M3 receptor (Homo sapiens, UniProt P20309)
Construct: expressed in transfected cells; host or cells: CHO cells
Sequence (P20309 whole entry): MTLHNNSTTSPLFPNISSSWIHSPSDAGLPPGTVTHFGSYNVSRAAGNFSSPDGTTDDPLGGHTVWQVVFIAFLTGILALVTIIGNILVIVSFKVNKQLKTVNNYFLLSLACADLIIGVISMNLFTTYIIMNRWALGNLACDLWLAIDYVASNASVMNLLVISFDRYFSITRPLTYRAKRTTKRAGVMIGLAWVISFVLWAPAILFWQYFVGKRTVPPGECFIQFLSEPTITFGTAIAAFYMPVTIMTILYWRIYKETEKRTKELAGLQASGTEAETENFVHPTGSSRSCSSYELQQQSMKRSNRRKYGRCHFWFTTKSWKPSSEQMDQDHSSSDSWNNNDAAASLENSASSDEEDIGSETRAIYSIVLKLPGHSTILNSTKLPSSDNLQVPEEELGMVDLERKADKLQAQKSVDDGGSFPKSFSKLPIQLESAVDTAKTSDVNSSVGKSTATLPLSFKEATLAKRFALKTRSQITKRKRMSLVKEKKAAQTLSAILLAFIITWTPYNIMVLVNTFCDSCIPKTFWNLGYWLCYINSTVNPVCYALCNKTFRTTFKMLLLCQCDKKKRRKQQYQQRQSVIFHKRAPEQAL
Test: Test for binding to human M3 receptor
Procedure: A solution of cryopreserved CHO cells expressing human M3 receptor was diluted with a buffer (50 mM tris-hydrochloride containing 0.5 mM of EDTA, pH 7.4) to obtain 5.0×10^5 of cells/mL and used as a crude membrane sample. […]
Counter-ions that a name gives are not always drawn.
Scale for pKi: -log10 of concentration given in mol/L; no unit attached.

Please look at Cc1cc(NCCCCCC(=O)N(C)CCN2CCC(OC(=O)Nc3ccccc3-c3ccccc3)CC2)ccc1C(=O)N(C)CCCN(C)C(=O)CO[C@H]1Cc2ccccc2C12CCN(CC[C@@]1(c3ccc(F)cc3)CN(C(=O)c3cc(C(F)(F)F)cc(C(F)(F)F)c3)CO1)CC2 [Example 18, trihydrochloride] and tell me its recorded pKi on human M3 receptor (Homo sapiens, UniProt P20309).
8.92

Please tell me the measured pKi for CN(CCN1CCC(OC(=O)Nc2ccccc2-c2ccccc2)CC1)C(=O)CCCNc1ccc(C(=O)N(C)CCCN(C)C(=O)CO[C@H]2Cc3ccccc3C23CCN(CC[C@@]2(c4ccc(F)cc4)CN(C(=O)c4cc(C(F)(F)F)cc(C(F)(F)F)c4)CO2)CC3)cc1 [Example 34, trihydrochloride] ; system: human M3 receptor (Homo sapiens, UniProt P20309).
8.82

# return pKi of CN(CCN1CCC(OC(=O)Nc2ccccc2-c2ccccc2)CC1)C(=O)CCCN(C)c1ccc(C(=O)N(C)CCCN(C)C(=O)CO[C@H]2Cc3ccccc3C23CCN(CC[C@@]2(c4ccc(F)cc4)CN(C(=O)c4cc(C(F)(F)F)cc(C(F)(F)F)c4)CO2)CC3)cc1 [Example 36, trihydrochloride] (system: human M3 receptor (Homo sapiens, UniProt P20309))
8.74

Recall the reported pKi of CN(CCN1CCC(OC(=O)Nc2ccccc2-c2ccccc2)CC1)C(=O)CCCCNc1ccc(C(=O)N(C)CCCN(C)C(=O)CO[C@H]2Cc3ccccc3C23CCN(CC[C@@]2(c4ccc(F)cc4)CN(C(=O)c4cc(C(F)(F)F)cc(C(F)(F)F)c4)CO2)CC3)cc1 [Example 32, trihydrochloride] on human M3 receptor (Homo sapiens, UniProt P20309) and write it down.
8.96

====

Give pKi for every item shown.
Target: human M3 receptor (Homo sapiens)
Construct: expressed in transfected cells; host or cells: CHO cells
Test: Test for binding to human M3 receptor
Counter-ions that a name gives are not always drawn.
On this scale, pKi is minus log10 of a concentration expressed in M (mol/L).

Determine from records and report pKi for Cc1nc(NCCCCCC(=O)N(C)CCN2CCC(OC(=O)Nc3ccccc3-c3ccccc3)CC2)sc1C(=O)N(C)CCN(C)C(=O)CO[C@H]1Cc2ccccc2C12CCN(CC[C@@]1(c3ccc(F)cc3)CN(C(=O)c3cc(C(F)(F)F)cc(C(F)(F)F)c3)CO1)CC2 [Example 107, trihydrochloride]
8.85

Report measured pKi; entry is CN(CCN1CCC(OC(=O)Nc2ccccc2-c2ccccc2)CC1)C(=O)CCCCCCN(C)c1ccc(C(=O)N(C)CCCN(C)C(=O)CO[C@H]2Cc3ccccc3C23CCN(CC[C@@]2(c4ccc(F)cc4)CN(C(=O)c4cc(C(F)(F)F)cc(C(F)(F)F)c4)CO2)CC3)cc1 [Example 40, trihydrochloride]
8.70

====

Please go through the items and note down their pKi.
Biological target: human M3 receptor (Homo sapiens)
Construct: expressed in transfected cells; host or cells: CHO cells
Test: Test for binding to human M3 receptor
Structures can show the parent of a compound that is named as a salt.
Please report pKi as the negative decimal logarithm of the molar concentration, giving only the number.

Read off the recorded pKi for Cc1cc(NCCCCCC(=O)N(C)CCN2CCC(OC(=O)Nc3ccccc3-c3ccccc3)CC2)sc1C(=O)N(C)CCCN(C)C(=O)CO[C@H]1Cc2ccccc2C12CCN(CC[C@@]1(c3ccc(F)cc3)CN(C(=O)c3cc(C(F)(F)F)cc(C(F)(F)F)c3)CO1)CC2 [Example 30, trihydrochloride]
9.21

Hello, please tell me recorded pKi for this one: CN(CCN1CCC(OC(=O)Nc2ccccc2-c2ccccc2)CC1)C(=O)COCCCNc1ccc(C(=O)N(C)CCCN(C)C(=O)CO[C@H]2Cc3ccccc3C23CCN(CC[C@@]2(c4ccc(F)cc4)CN(C(=O)c4cc(C(F)(F)F)cc(C(F)(F)F)c4)CO2)CC3)cc1 [Example 27, trihydrochloride]
8.85

Using the record for CN(CCN1CCC(OC(=O)Nc2ccccc2-c2ccccc2)CC1)C(=O)CCCCCNc1ccc(C(=O)N2CCCN(C(=O)CO[C@H]3Cc4ccccc4C34CCN(CC[C@@]3(c5ccc(F)cc5)CN(C(=O)c5cc(C(F)(F)F)cc(C(F)(F)F)c5)CO3)CC4)CC2)cc1 [Example 110, trihydrochloride] , state its measured pKi.
9.03

Provide only the value of recorded pKi for CN(CCCCCC(=O)N(C)CCN1CCC(OC(=O)Nc2ccccc2-c2ccccc2)CC1)Cc1cccc(C(=O)N(C)CCCN(C)C(=O)CO[C@H]2Cc3ccccc3C23CCN(CC[C@@]2(c4ccc(F)cc4)CN(C(=O)c4cc(C(F)(F)F)cc(C(F)(F)F)c4)CO2)CC3)c1 [Example 41, trihydrochloride]
8.85

====

Molecular target: human NK2 receptor (Homo sapiens, UniProt P21452)
Construct: expressed in transfected cells; host or cells: COS cells
Sequence (P21452 whole entry): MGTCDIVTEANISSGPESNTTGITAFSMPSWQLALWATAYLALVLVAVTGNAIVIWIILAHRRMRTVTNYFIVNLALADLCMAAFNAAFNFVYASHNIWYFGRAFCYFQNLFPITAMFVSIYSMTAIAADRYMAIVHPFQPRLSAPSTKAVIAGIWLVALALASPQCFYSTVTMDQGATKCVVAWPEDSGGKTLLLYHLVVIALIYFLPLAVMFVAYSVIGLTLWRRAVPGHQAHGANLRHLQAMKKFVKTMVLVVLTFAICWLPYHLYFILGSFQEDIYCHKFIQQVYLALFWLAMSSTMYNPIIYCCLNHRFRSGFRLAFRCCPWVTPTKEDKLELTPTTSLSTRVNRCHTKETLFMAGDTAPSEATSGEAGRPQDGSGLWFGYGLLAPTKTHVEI
Test: Test for binding to human NK2 receptor
Counter-ions that a name gives are not always drawn.
Readout kind: pKi
# pKi is unitless: minus log10 of the molar concentration; print number only

Indicate its recorded pKi; the molecule in question is CN(CCN1CCC(OC(=O)Nc2ccccc2-c2ccccc2)CC1)C(=O)CCCCCNc1ccc(C(=O)N(CCCN(C)C(=O)CO[C@H]2Cc3ccccc3C23CCN(CC[C@@]2(c4ccc(F)cc4)CN(C(=O)c4cc(C(F)(F)F)cc(C(F)(F)F)c4)CO2)CC3)C2CC2)cc1 [Example 25, trihydrochloride]
9.11

// Input: CN(CCN1CCC(OC(=O)Nc2ccccc2-c2ccccc2)CC1)C(=O)CCCCCCN(C)c1ccc(C(=O)N(C)CCCN(C)C(=O)CO[C@H]2Cc3ccccc3C23CCN(CC[C@@]2(c4ccc(F)cc4)CN(C(=O)c4cc(C(F)(F)F)cc(C(F)(F)F)c4)CO2)CC3)cc1 [Example 40, trihydrochloride] . Output its pKi only.
9.08

Identify measured pKi corresponding to CN(CCN1CCC(OC(=O)Nc2ccccc2-c2ccccc2)CC1)C(=O)COCCCNc1ccc(C(=O)N(C)CCCN(C)C(=O)CO[C@H]2Cc3ccccc3C23CCN(CC[C@@]2(c4ccc(F)cc4)CN(C(=O)c4cc(C(F)(F)F)cc(C(F)(F)F)c4)CO2)CC3)cc1 [Example 27, trihydrochloride]
9.12

Using the record for CN(CCN1CCC(OC(=O)Nc2ccccc2-c2ccccc2)CC1)C(=O)CCCNc1ccc(C(=O)N(C)CCCN(C)C(=O)CO[C@H]2Cc3ccccc3C23CCN(CC[C@@]2(c4ccc(F)cc4)CN(C(=O)c4cc(C(F)(F)F)cc(C(F)(F)F)c4)CO2)CC3)cc1 [Example 34, trihydrochloride] , state its measured pKi.
9.27

Fill in pKi for record CN(CCN1CCC(OC(=O)Nc2ccccc2-c2ccccc2)CC1)C(=O)CCCCCNc1ccc(C(=O)N(C)CCCN(C)C(=O)CO[C@H]2Cc3ccccc3C23CCN(CC[C@@]2(c4ccc(F)cc4)CN(C(=O)c4cc(C(F)(F)F)cc(C(F)(F)F)c4)CO2)CC3)cc1F [Example 13, trihydrochloride]
9.19

State its pKi for this molecule: CN(CCN1CCC(OC(=O)Nc2ccccc2-c2ccccc2)CC1)C(=O)CCCCCNc1nc(CC(=O)N(C)CCCN(C)C(=O)CO[C@H]2Cc3ccccc3C23CCN(CC[C@@]2(c4ccc(F)cc4)CN(C(=O)c4cc(C(F)(F)F)cc(C(F)(F)F)c4)CO2)CC3)cs1 [Example 88, trihydrochloride]
9.14

Give pKi for CN(CCN1CCC(OC(=O)Nc2ccccc2-c2ccccc2)CC1)C(=O)CCCCCNc1ccc(N(C)C(=O)CCCN(C)C(=O)CO[C@H]2Cc3ccccc3C23CCN(CC[C@@]2(c4ccc(F)cc4)CN(C(=O)c4cc(C(F)(F)F)cc(C(F)(F)F)c4)CO2)CC3)cc1 [Example 84, trihydrochloride]
9.05

====

So I've got a bunch of molecules here, and I need their Ki values.
Biological target: substance P receptor (Cavia porcellus, UniProt P30547)
Construct: A preparation of a crude lung membrane sample was prepared; from tissue; host or cells: guinea-pig lung (crude membrane sample)
Sequence (P30547 whole entry): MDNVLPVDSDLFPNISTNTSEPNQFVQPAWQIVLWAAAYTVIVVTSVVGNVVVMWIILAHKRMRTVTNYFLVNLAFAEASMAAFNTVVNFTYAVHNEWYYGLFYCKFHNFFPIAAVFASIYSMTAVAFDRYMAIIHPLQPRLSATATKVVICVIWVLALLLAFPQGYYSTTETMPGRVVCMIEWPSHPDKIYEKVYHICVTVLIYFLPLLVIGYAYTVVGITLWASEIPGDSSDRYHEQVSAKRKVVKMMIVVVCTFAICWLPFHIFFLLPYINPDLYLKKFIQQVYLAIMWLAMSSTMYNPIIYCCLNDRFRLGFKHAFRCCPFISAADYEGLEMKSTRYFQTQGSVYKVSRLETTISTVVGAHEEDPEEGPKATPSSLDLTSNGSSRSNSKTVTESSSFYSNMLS
Assay: Test for binding to guinea-pig substance P receptor (crude lung membrane sample)
Conditions: crude guinea-pig lung membrane sample, [3H]substance P; Ki from IC50 and Kd; read-out: Ki
Structures can show the parent of a compound that is named as a salt.
Please give a number only; it is taken to be in nM.

Give Ki for the following molecule: CN(CCN1CCC(OC(=O)Nc2ccccc2-c2ccccc2)CC1)C(=O)CCCCCNc1nc2ccc(C(=O)N(C)CCCN(C)C(=O)CO[C@H]3Cc4ccccc4C34CCN(CC[C@@]3(c5ccc(F)cc5)CN(C(=O)c5cc(C(F)(F)F)cc(C(F)(F)F)c5)CO3)CC4)cc2s1
1

// fetch Ki given entry CN(CCN1CCC(OC(=O)Nc2ccccc2-c2ccccc2)CC1)C(=O)CCCCCNc1ccc(C(=O)N(C)CCCN(C)C(=O)CO[C@H]2Cc3ccccc3C23CCN(CC[C@@]2(c4ccc(F)cc4)CN(C(=O)c4cc(C(F)(F)F)cc(C(F)(F)F)c4)CO2)CC3)nc1
2.1

Look up Ki of CN(CCCCCC(=O)N(C)CCN1CCC(OC(=O)Nc2ccccc2-c2ccccc2)CC1)Cc1ccc(C(=O)N(C)CCCN(C)C(=O)CO[C@H]2Cc3ccccc3C23CCN(CC[C@@]2(c4ccc(F)cc4)CN(C(=O)c4cc(C(F)(F)F)cc(C(F)(F)F)c4)CO2)CC3)nc1 and report it.
1.5

Answer with the recorded Ki of CN(CCN1CCC(OC(=O)Nc2ccccc2-c2ccccc2)CC1)C(=O)CCCNc1ccc(C(=O)N(C)CCCN(C)C(=O)CO[C@H]2Cc3ccccc3C23CCN(CC[C@@]2(c4ccc(F)cc4)CN(C(=O)c4cc(C(F)(F)F)cc(C(F)(F)F)c4)CO2)CC3)cc1 [Example 34, trihydrochloride] only.
1

Identify Ki associated with the molecule CN(CCN1CCC(OC(=O)Nc2ccccc2-c2ccccc2)CC1)C(=O)CCCCCCNc1ccc(C(=O)N(C)CCCN(C)C(=O)CO[C@H]2Cc3ccccc3C23CCN(CC[C@@]2(c4ccc(F)cc4)CN(C(=O)c4cc(C(F)(F)F)cc(C(F)(F)F)c4)CO2)CC3)cc1.Cl.Cl.Cl [Example 39, trihydrochloride]
1.2

Entry CN(CCN1CCC(OC(=O)Nc2ccccc2-c2ccccc2)CC1)C(=O)CCCCCNc1ccc(C(=O)N(CCCN(C)C(=O)CO[C@H]2Cc3ccccc3C23CCN(CC[C@@]2(c4ccc(F)cc4)CN(C(=O)c4cc(C(F)(F)F)cc(C(F)(F)F)c4)CO2)CC3)C2CC2)cc1 [Example 25, trihydrochloride] needs its Ki filled in; supply it.
1.7

Look up and report measured Ki for this entry: CN(CCN1CCC(OC(=O)Nc2ccccc2-c2ccccc2)CC1)C(=O)CCCCNc1ccc(C(=O)N(C)CCCN(C)C(=O)CO[C@H]2Cc3ccccc3C23CCN(CC[C@@]2(c4ccc(F)cc4)CN(C(=O)c4cc(C(F)(F)F)cc(C(F)(F)F)c4)CO2)CC3)cc1 [Example 32, trihydrochloride]
1.3
